Tested on: COLO 205 colon
Assay: NCI-60 one-dose screen, 48 h (100 = growth as untreated, 0 = no growth, -100 = all killed)
Settings: 10 µM unless noted
About 83,000 compounds went through this panel and 20% of them were active in at least one assay; those are over-represented in the sample as a whole.
Each item that follows carries a reported growth.
Write the number in % without appending the unit.

S=c1[nH]nc(-c2cc3ccc2CCc2ccc(cc2)CC3)n1C1CC1: 113

Task item: Would you mind telling me what growth value was observed for `Cc1ccc(S(=O)(=O)Nc2c(Br)cc(Br)cc2C(N)=O)cc1` ?
Reply: 103

Task item: Next compound: `Nc1ccc(C(=O)CSc2nc3ccccc3[nH]2)cc1`
Reply: 120

Task item: Please give the result for `COc1ccc(-n2c(=S)sc3c(Cl)nc(C)nc32)c(OC)c1` too.
Reply: 61.1

Task item: Queued: `Cc1cc(C)n(-c2nnc3n2N=C(c2ccc(-c4ccccc4)cc2)CS3)n1`
Reply: 39.8

Task item: Same read-out for CCCCCCCCCCCCNC(=O)[C@H]1CSC(c2ccsc2)N1 (stereo partly specified) ?
Reply: 84

----------
System: T-47D breast
Test: NCI-60 one-dose screen, 48 h (100 = growth as untreated, 0 = no growth, -100 = all killed)
Conditions: 10 µM unless noted
The panel holds about 83,000 compounds, 20% with a hit somewhere; the sample as a whole holds those more often.
growth by entry:
Write the number in % without appending the unit.

Below are worked cases with known answers.
C=C[C@@H]1C[C@@H]2Cc3c(C)cc(C)cc3N1O2: 115
Cc1ccc2nc(-c3cc4c([nH]c5ccccc54)c(-c4ccc(F)c(F)c4)n3)[nH]c2c1: 77.8
COc1cc(-c2nn(-c3cccc(NC(=O)c4ccccc4)c3)cc2-c2ccncc2)ccc1Cl: 21.8
C=C(C)[C@@H]1C[C@@H]2Cc3cc(F)ccc3N1O2: 107
N=C(N)c1ccc(-c2ccc(-c3ccc(-c4cccs4)s3)s2)cc1: 76

Task item: Find the recorded growth belonging to `O=C(Nc1ccc2c(c1)OCO2)C(=O)c1c[nH]c2cc(F)ccc12` and report it.
Reply: 46.7

Task item: Entry `O=C1NN(C(=O)c2ccc(Cl)cc2)C(c2ccccc2)=N/C1=C\c1ccc(F)cc1` please
Reply: 80.7

Task item: // repeat for `CC(=O)Nc1ccc(/C=C/C(=O)c2ccccc2)cc1` and report
Reply: 73.9

Task item: `CC1(C)C(=O)/C(=C\c2ccc(C(F)(F)F)cc2)C[C@]2(C)[C@H]3CC[C@@H]4[C@H]5[C@H](C(=O)/C=C/c6ccc(C(F)(F)F)cc6)CC[C@]5(CO)CC[C@@]4(C)[C@]3(C)CC[C@@H]12` ?
Reply: 76

----------
System: CCRF-CEM leukemia
Assay: NCI-60 one-dose screen, 48 h
Details: 10 µM unless noted
Procedure: Growth inhibition of the CCRF-CEM human tumor cell line is measured as a screen for anti-cancer activity. Cells are grown in 96 well plates and exposed to the test compound for 48 hours. Compounds are tested at a single concentration, which is 10^-5 M for most compounds. The reported endpoint is percent growth (GI% or GIPRCNT), where numbers from 0 - 100% represent growth inhibition, and numbers from -100% - 0 represent cell death. For example, a value of 40 represents 60% growth inhibition. […]
Compounds without any hit were thinned out: in the full panel of roughly 83,000, 20% have a hit. Calls of active or inactive are those of the source. Rule for the calls: active = growth percent below 10; inactive = the rest.
Write down the outcome that applies. Available outcomes: active, inactive

Examples from the recorded data:
S=C(S)NCCc1c[nH]c2ccccc12: inactive
COc1ccc(-c2nc(/C=N/Nc3cc(C)nc4ccc(Br)cc34)c(C)o2)cc1: active
CN1C=CN(Cc2ccc(-c3ccccn3)nc2)[CH-]1.CN1C=CN(Cc2ccc(-c3ccccn3)nc2)[CH-]1.[Au+3]: active
CN1CCN(CCCOc2ccc3nc(Nc4ccc(Cl)c(C(F)(F)F)c4)ccc3c2)CC1: inactive
OCCCCCCNc1ncnc2cc(Cl)ccc12: inactive

Task item: How was `Cc1cc(N)n(S(=O)(=O)c2oc(-c3ccccc3)nc2C#N)n1` classified in this test?
Reply: active

Task item: Same question for `O=S(=O)(NCCNc1nccc(-c2c(-c3ccc(F)cc3)nc3sccn23)n1)c1ccc(F)cc1` please.
Reply: inactive

Task item: // next record OC(c1cc2cc(Br)ccc2c2cc(Br)ccc12)C1CCCCN1 (centres undefined)
Reply: active

Task item: Now the same for `Brc1cccc(-c2cc(-c3ccc4c(c3)OCCCO4)[nH]n2)c1`
Reply: inactive

Task item: Now give it for `Cc1ccc(/C=C2\CN(C(=O)CCN3CCC(=NO)CC3)C/C(=C\c3ccc(C)cc3)C2=O)cc1` too.
Reply: active

Task item: Try the compound `c1cc2[nH]ncc2cc1-c1nc2ccc3[nH]ncc3c2c2c1CCC2`
Reply: inactive

Task item: Would you mind doing Cc1nc2c3c(ncn2n1)Oc1c(c(=O)[nH]c2ccccc12)C3c1ccc(Cl)cc1 (centres undefined) as well?
Reply: inactive

Task item: Moving on to `C=C1C(=O)O[C@H]2[C@H]1CC/C(COC(=O)NCc1ccccc1OC)=C\CC[C@@]1(C)O[C@@H]21`
Reply: active

Task item: Quick one: `O=C(CN1CCN(c2cc3c(cc2F)c(=O)c(C(=O)N/N=C/c2ccccc2O)cn3C2CC2)CC1)N/N=C\c1ccccc1O`
Reply: active

Task item: Again, but for `OB(O)c1cccc(-c2nc3ccc4[nH]ncc4c3c3c2CCCC3)c1F`
Reply: inactive

Task item: Try the compound `COc1ccc(S(=O)(=O)Nc2cc(/C=C\c3cc(OC)c(OC)c(OC)c3)cc(OC)c2OC)cc1`
Reply: inactive

----------
Measured growth accompanies every entry in the list below.
Test system: MDA-MB-435 melanoma
Test: NCI-60 one-dose screen, 48 h (100 = growth as untreated, 0 = no growth, -100 = all killed)
Conditions: 10 µM unless noted
The panel holds about 83,000 compounds, 20% with a hit somewhere; the sample as a whole holds those more often.
Kindly answer with a numeric value in %, unit omitted.

Worked examples follow.
CC(C)(C)Nc1c(-c2cccs2)nc2ncccn12: 107
O=C(Nc1ccncc1)C(=O)c1cn(S(=O)(=O)c2ccc(Cl)cc2)c2ccccc12: 0.272
CCOC(=O)C1=C(C)NC(C)=C(C(=O)OCC)C1(C)C: 116
Cc1ccc2nc(Cl)cc(=O)n2c1: 106

Task item: Which growth value is on record for `O=C1CCCCC1(c1ccccc1)c1ccccc1` ?
Reply: 101

Task item: Another molecule to look at: `Cc1ccc(Nc2nnc(-c3ccc(Cl)cc3)o2)c(C)c1`
Reply: 6.82

Task item: Similarly, `Cc1cc(N/N=C/c2nc(-c3ccc(Br)cc3)oc2C)c2cc(Br)ccc2n1` ?
Reply: -11.2

----------
System: HS 578T breast
Test: NCI-60 one-dose screen, 48 h (100 = growth as untreated, 0 = no growth, -100 = all killed)
Conditions: 10 µM unless noted
About 83,000 compounds went through this panel and 20% of them were active in at least one assay; those are over-represented in the sample as a whole.
Reported endpoint: growth (%)
Only the number, expressed in %, is required.

Some compounds with known growth results, for comparison:
COc1cc(-c2nc(N=Nc3c(O)[nH]c4ccc(Br)cc34)[nH]c(=O)c2C#N)cc(OC)c1OC: 93.8
CCOC(=O)CC(=O)OC: 114

Task item: Quick one: growth of `COc1ccc(C(=O)N2NC(=O)/C(=C/c3ccc(F)cc3)N=C2c2ccccc2)cc1` ?
Reply: 101

Task item: For `COc1ccc(-n2c(-c3ccccc3)c(-c3ccccc3)c3c(SCC(=O)N/N=C/c4ccc(Cl)cc4)ncnc32)cc1` then?
Reply: 93

Task item: Next: `Nc1nc(-c2ccccc2)c(CCCOc2ccc(NC(=O)CBr)cc2)c(=O)[nH]1`
Reply: 99.1

Task item: What do we get for `O=C1NN(C(=O)c2ccc(Cl)cc2)C(c2ccccc2)=N/C1=C\c1ccc(F)cc1` ?
Reply: 95.2

Task item: // repeat for `O=[N+]([O-])c1cc(S(=O)(=O)Oc2ccccc2)ccc1Cl` and report
Reply: -7.12

----------
Tested on: UACC-257 melanoma
Assay: NCI-60 one-dose screen, 48 h (100 = growth as untreated, 0 = no growth, -100 = all killed)
Conditions: 10 µM unless noted
Compounds without any hit were thinned out: in the full panel of roughly 83,000, 20% have a hit.
Reported endpoint: growth (%)
Please give a number only; it is taken to be in %.

CCOC(=O)/C(C#N)=C1/C(=O)Nc2ccccc21: 123
COc1ccc(Cn2cc3c(c2-c2cc(OC)c(OC)c(OC)c2)CCc2cnoc2-3)cc1: 67.6
COc1cc(NC(=O)SC2=NCCS2)cc(OC)c1: 104

Now take the following compound into account.
Task item: Requested field: growth. Item: `CC(C)OC(=O)N1CCOCC1`
Reply: 97.1
